- assayed target: HCV polymerase (Hepatitis C virus genotype 1b)
- Construct: (His)6 (C)
- experimental protocol: biochemical
- condition details: polymerase assay of Biological Example 1; read-out: NS5B polymerase IC50
Attribute: pIC50
For clarity, pIC50 is expressed as the negative log10 of concentration in mol/L.

// below: answered compounds
CNC(=O)c1c(-c2ccc(F)cc2)oc2nc(N(CCCC(C)O)S(C)(=O)=O)c(I)cc12 (centres unmarked)
7.41
CNC(=O)c1c(-c2ccc(F)cc2)oc2nc(N(C)S(C)(=O)=O)c(CCCCC(=O)N3CCC[C@H]3C(=O)O)cc12
7.29
CNC(=O)c1c(-c2ccc(C)cc2)oc2nc(N(CC[C@H]3C[C@@H]3C(=O)O)S(C)(=O)=O)c(C3CC3)cc12
8.70
CNC(=O)c1c(-c2ccc(C)cc2)oc2nc(N(CCCN3CCCC3=O)S(C)(=O)=O)c(C3CC3)cc12
8.30
CCc1cc2c(C(=O)NC)c(-c3ccc(F)cc3)oc2nc1N(CCCCC(=O)OC)S(C)(=O)=O
8.00
CNC(=O)c1c(-c2ccc(C)cc2)oc2nc(N(CCCC3(C(=O)O)COC3)S(C)(=O)=O)c(C3CC3)cc12
8.30

What does the record list as pIC50 for `CCCc1cc2c(C(=O)NC)c(-c3ccc(F)cc3)oc2nc1N(C)S(C)(=O)=O` ? 7.11

Thanks! And `CCc1cc2c(C(=O)NC)c(-c3ccc(F)cc3)oc2nc1N(CCCS(=O)(=O)C(C)C)S(C)(=O)=O` ? 7.74

---

- assayed target: HCV polymerase (Hepatitis C virus genotype 1b)
- Construct: (His)6 (C)
- experimental protocol: biochemical
- condition details: polymerase assay of Biological Example 1; read-out: NS5B polymerase IC50
test readout: IC50 (nM)
All answers are understood in nM, so give the number only.

CNC(=O)c1c(-c2ccc(C)cc2)oc2nc(N(CCCC#N)S(C)(=O)=O)c(C3CC3)cc12
2

For the next question, use this compound.
Recorded IC50 for `CNC(=O)c1c(-c2ccc(F)cc2)oc2nc(N(CCCOCCOC)S(C)(=O)=O)c(I)cc12` , please? 237

---

- assayed target: HCV polymerase (Hepatitis C virus genotype 1b)
- Construct: (His)6 (C)
- experimental protocol: biochemical
- condition details: polymerase assay of Biological Example 1; read-out: NS5B polymerase IC50
Form field: pIC50 (one value per entry).
The meaning of pIC50 here: minus log10 of the concentration in molar units.

The following compounds have reported results that may help.
CNC(=O)c1c(-c2ccc(C)cc2)oc2nc(N(CCCN)S(C)(=O)=O)c(C3CC3)cc12
7.85
CNC(=O)c1c(-c2ccc(C)cc2)oc2nc(N(CCCS(C)(=O)=O)S(C)(=O)=O)c(I)cc12
7.85

Let us move to another entry and its pIC50.
Query: pIC50; subject: `CNC(=O)c1c(-c2ccc(F)cc2)oc2nc(N(CCCCC(=O)O)S(C)(=O)=O)c(I)cc12` 8.05

---

- assayed target: HCV polymerase (Hepatitis C virus genotype 1b, UniProt Q9WMX2)
- Construct: (His)6 (C)
- experimental protocol: biochemical
- condition details: polymerase assay of Biological Example 1; read-out: NS5B polymerase IC50
pIC50 for assorted compounds
// pIC50: -log10(molar conc.)

CCc1cc2c(C(=O)NC)c(-c3ccc(F)cc3)oc2nc1N(CCCC#N)S(C)(=O)=O
7.13
C=Cc1cc2c(C(=O)NC)c(-c3ccc(F)cc3)oc2nc1N(C)S(C)(=O)=O
7.92
CNC(=O)c1c(-c2ccc(C)cc2)oc2nc(N(CCCCC#N)S(C)(=O)=O)c(C3CC3)cc12
8.70

# evaluate next
Param item = `CCc1cc2c(C(=O)NC)c(-c3ccc(F)cc3)oc2nc1N(CCCN(C)S(=O)(=O)c1ccccc1)S(C)(=O)=O` ; retrieve measured pIC50. 7.13
